assay: binders of probe aFGF2 on microarray, primary screen, stem cell growth factor project, biochemical, small-molecule microarray, fluorescence 635/667 (AID 1067); settings: higher = more signal;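 further: measures binding of biotinylated aFGF2 protein to printed compounds on slides; z-score merges feature fluorescence and signal-to-noise across triplicate slides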

[
  {
    "COMPOUND": "COCC(=C=CC[C@H](O)c1ccc(OCCO)cc1)C[C@H](O)c1cc(Cl)cc(Cl)c1O",
    "composite z-score": -0.0125
  },
  {
    "COMPOUND": "COCCOC(=O)N1C(=O)[C@@]2(c3cc(C#CCNC(N)=O)ccc31)[C@H](c1ccc(OCCO)cc1)N1[C@H](c3ccccc3)[C@H](c3ccccc3)OC(=O)[C@H]1[C@@H]2C(=O)N1CCc2cc(OC)c(OC)cc2C1",
    "composite z-score": -0.051
  },
  {
    "COMPOUND": "CCCCC=C[C@@H](NC(=O)c1ccco1)c1ccccc1",
    "composite z-score": 0.0603
  },
  {
    "COMPOUND": "CCOc1cc(C(O)C2C=CC3C(=O)N(c4ccccc4)C(=O)C3N2Nc2ccc([N+](=O)[O-])cc2)ccc1O (stereo not given)",
    "composite z-score": 0.0139
  },
  {
    "COMPOUND": "CCOC(=O)C[C@H]1[C@H](OC(=O)Cc2ccc3c(c2)OCO3)[C@@H](NC(=O)C2CCCCC2)c2cc(OCCCO)ccc2N1C(=O)Cc1ccc(OC)cc1",
    "composite z-score": -0.048
  },
  {
    "COMPOUND": "N#Cc1ccc(NN2C(C(O)c3ccc([N+](=O)[O-])cc3)C=CC3C(=O)N(c4ccccc4)C(=O)C32)cc1 (stereo not given)",
    "composite z-score": 0.11
  },
  {
    "COMPOUND": "COC(=O)c1c(CC[C@@H](CO)NC(=O)N[C@@H](Cc2ccccc2)Cn2cc(C3(O)CCCCC3)nn2)oc(C(C)=O)c1C(=O)OC",
    "composite z-score": -0.0478
  },
  {
    "COMPOUND": "CC(C)OC(=O)CC(=O)CC(O)c1ccc(C#N)cc1 (stereo not given)",
    "composite z-score": 0.0798
  },
  {
    "COMPOUND": "C=CC[C@@]1(C(=O)N2CCOCC2)N=C(c2ccc(OCCCO)cc2)O[C@@H]1c1ccccc1N=[N+]=[N-]",
    "composite z-score": -0.0073
  },
  {
    "COMPOUND": "CC(C)CNC(=O)[C@@H]1c2ccccc2C(=O)N(Cc2cc(C(F)(F)F)cc(C(F)(F)F)c2)[C@H]1c1ccc(CO)cc1",
    "composite z-score": 0.071
  },
  {
    "COMPOUND": "CCCNC(=O)[C@@H]1c2ccccc2C(=O)N(Cc2ccccc2)[C@H]1c1ccc(CO)cc1",
    "composite z-score": -0.0861
  },
  {
    "COMPOUND": "CCOC(=O)[C@H]1C/C=C/C[C@H](C(=O)OCC)C(=O)O[C@H]2[C@@H](OC)O[C@H](CO)[C@@H](OC(=O)Nc3ccc4c(c3)OCO4)[C@@H]2OC1=O",
    "composite z-score": 0.0302
  },
  {
    "COMPOUND": "C=C[C@H](C)[C@@H](O)c1ccc(O)c2ccccc12",
    "composite z-score": 0.126
  },
  {
    "COMPOUND": "COCCOC(=O)N1C(=O)[C@@]2(c3cc(C#CC4=CCCCC4)ccc31)[C@H](C(=O)N1CCc3cc(OC)c(OC)cc3C1)[C@H]1C(=O)O[C@H](c3ccccc3)[C@H](c3ccccc3)N1[C@@H]2c1ccccc1OCCO",
    "composite z-score": -0.0867
  },
  {
    "COMPOUND": "CO[C@H]1O[C@H](CO)[C@@H](OC(=O)Nc2ccc(Oc3ccccc3)cc2)[C@H](OC(=O)Nc2ccccc2)[C@H]1OC(=O)Nc1ccccc1",
    "composite z-score": 0.0732
  }
]
